Test: yeast display, Sf9 membrane polyspecificity reagent, FACS + sequencing; frameworks hold sequencing errors

sequence.record	polyreactivity (PSR sort gate)
QVQLVESGGGLVQAGASLRLSCAASGSTFGGNAMGWSRQAPWKERELVAAINWTGGSTYADSVKGRFTISRDNAKNTVYLQMNRLKPEDTAVYYCAIRATWGSSTQYLQNQEYDYWGQGSQVTVSS	low polyreactivity
QVQLVESGGGLVQAGGSLRLSCAASGFIFDYYMGWYRQAPGKERELVARISYTGGSTYYADSVKGRFTISRDNAKNTVYLQMNSLNPEDTAVYYCATRGAEAERFASYDFDYWGQGTQVTVSS	low polyreactivity

---

Test: yeast display, Sf9 membrane polyspecificity reagent, FACS + sequencing; frameworks hold sequencing errors
measure: polyreactivity (PSR sort gate)

# example entries with known answers
sequence.record	recorded.value
QVQLVESGGGLVQAGGSLRLSCAASGIIFPPYAMGWYRQAPWKEREFVAGITSSGGTYYADSVKGRFTISRDNAKNTVYLQMNSLKPEDTAVYYCAARQGNLRRGVRWFNYWGQGTQVTVSS	high polyreactivity
QLQLVESGGGLVQAGGSLRLSCAASGSIFYQYVMGWYRQAPGKEREFVAAIRYTGVGTYYADSVKGRFTLSRDNAKYTVYLQMNSLKPEDTAVYYCAARSYNRRARYDYWGQGTQVNVSS	high polyreactivity
QVQLVESGGGLVQAGGSLRLSCAASGRTFLRYAMGWYRQAPGKERELVAAISSRGGSTYYADSVKGRFTISRDNAKNTVYLQMNSLKPEDTAVYYCAADTYYTRYYYWGQGTQVTVSS	high polyreactivity
QVQLVESGGGLVQAGGSLRLSCAASGIILNYYAMGWYRQAPGKERELVAAISSGGTTYYADSVKGRFTISRDNAKNTVYLQMNSLKPEDTAVYYCNADYLYSRGGDWRWWDMDYWGQGTQVTVSS	low polyreactivity

Please look up its polyreactivity (PSR sort gate): QVQLQERGGGLVQAGGSLRQSCAASGTISDRAGMGWYRQAPAKNAIVATIDRGTNTNYADSVKGRFTISRDNAKNTVYLQMNSLKPEDTAVYNCAAVGRYNIYLDYWGQGTQVTVSS
low polyreactivity

# credit: the nanobody polyreactivity screen of Harvey et al. (2022)
